System: MS2 coat protein
measurement.notes: apparent KD of MS2 coat protein; designed switch direction (-1 OFF switch, 1 ON switch): -1; higher = weaker reporter binding
conditions.used: input ligand: FMN 200 uM
parameter.measured: apparent KD of MS2 coat protein (µM)
Only the number, expressed in µM, is required.

Use the examples below as a reference point.
UUUUAACAAGCGAGAUCCUACAUGAGGAUCACCCAUGUAUGUCAUGGUUUCCAUGGUCUUUUUGCUCGUCUUGUGUG [jl TITIN mod 7] (Eterna round: R97, puzzle: Sensor, turn-off variant 1) ... 0.0409
AGUGUGUGGCAGGAUAUUCUAAUCGUGAGUCGGGAAGAAGGGUCUACAUGAGGAUCACCCAUGUGAGCGGUUGA [Ex6 #45] (Eterna round: R97, puzzle: Exclusion 6) ... 0.219
AGAUGACAUGAGGAUCACCCAUGUUAGGAUAUUUAAGCCUGUACGCGCGUACUAGACGAGAGAAGGGACAUGGC [Eternabot (Original) Solution 39] (Eterna round: R97, puzzle: Exclusion 1) ... 0.0339
AUGUGAUUGGCUCUGAGACAUGAGGAUCACCCAUGUGGAGCGCAGGAUAUCCGAACCGUGAAGGCGGAGAAGGGCGUCGUGGUA [Zasorequer] (Eterna round: R96, puzzle: Exclusion NG 3) ... 0.0396

# next sequence below
**Q:** Which apparent KD of MS2 coat protein value belongs to UCAAGACAUGAGGAUCACCCAUGUCAGGAUAUCUAGGUUCGCUAUUUCAUUGUUAACGAGAGAAGGGACAUGAU [EX1 C.13] (Eterna round: R97, puzzle: Exclusion 1) ?
**A:** 0.0229

====

Let's look at some sequences and their measured apparent KD of MS2 coat protein.
Tested on: MS2 coat protein
measurement.notes: apparent KD of MS2 coat protein; designed switch direction (-1 OFF switch, 1 ON switch): -1; higher = weaker reporter binding
conditions.used: input ligand: none
Report field: quantity (unit follows the number).

Use the examples below as a reference point.
ACUUAUAGAGGAUAUACAGAAUAUUACAUGAGGAUCACCCAUGUUCUUCAAUGUAUAUAUGUAGAAGGCUAAGGAA [JL-ex5-4.22 Malcolm mod] (Eterna round: R97, puzzle: Exclusion 5) ... 88.8 nM
GCGGUACAUGAGGAUCACCCAUGUCAGGAUAUCCGCUGUAACUUAAUAAAUAAGCGGUGGAGAAGGGACUUCGC [-18.24, -17.54 kcal, 30% A] (Eterna round: R97, puzzle: Exclusion 1) ... 27.6 nM
CCCAUGUCAGGAUAUUAAUUGAGCAGAAAGCCCUGUUCACUUGAGAAGGGACAUGAGGAUCACCCAUGUAAAAC [Belexeedte] (Eterna round: R97, puzzle: Exclusion 4) ... 507 nM

**Q:** Which apparent KD of MS2 coat protein value belongs to GAUCGCCGUGUCAGGAUAUCUUGUGUACCCACGUUAGAGAAGGGACAUGAGGAUCACCCAUGUACCCUGGUUCU [Brourd's mod of Exclusion 4 (MOD3 of Nando's BmEX4 C.21)] (Eterna round: R97, puzzle: Brourd's mod of Exclusion 4) ?
**A:** 17.8 nM

**Q:** Which apparent KD of MS2 coat protein value belongs to GCUUUUUGUGUAGGAUAUCGCGCGCGGCGUGUGUGAGAAGGACAUGAGGAUCACCCAUGUAGCAACGGCGGCGCUGGUGUUGUC [-27, -24 kcal and 18% A] (Eterna round: R96, puzzle: Exclusion NG 1) ?
**A:** 19.5 nM

====

Tested on: MS2 coat protein
measurement.notes: apparent KD of MS2 coat protein; designed switch direction (-1 OFF switch, 1 ON switch): 1; higher = weaker reporter binding
conditions.used: Eterna round: R95; input ligand: none
# binarize apparent KD of MS2 coat protein: threshold 200 nM inclusive, high side TRUE, low side FALSE

Before answering, review these 8 worked examples.
UCUUGGUUUUUGCUCGUUUUUUGUGUUGAACAUGAGGAUCACCCAUGUAUUGUACGGUCCGGUUUGGUAAUGGUCCA [JMF 9] (puzzle: Sensor for hsa-mir-208a) ... FALSE
GUUAAACAUGAGGAUCACCCAUGUAAUAUAAUGGGAGGAUAUCUGAAUUAAUUAAAUUAAGGAGAAGGCCUAAUUG [Mat - Same State 1 - Mod of Eli - D52] (puzzle: Same State 1) ... TRUE
UAGAGAGGAAGCGAGGAUAUCGUGUGAGGAACAUGAGGAUCACCCAUGUGUGAUGUUGAGAGAGACGAGAAGGCGCAGGAGAUUA [JR_SS2_Sub083] (puzzle: Same State 2) ... FALSE
AACAAUCUAUCUGAGGAUAUCAUGAAAUAAACAUGAGGAUCACCCAUGUGCAGGAAAACUUCAUAUGAGAAGGCAGAUAGAUUGA [salish99_ss2_r3_045] (puzzle: Same State 2) ... FALSE
GUGCAACCGUGUGAGGAUAUCGGUGAAUAAACAUGAGGAUCACCCAUGUCCGAAGCUCGGUUCUCCGAGAAGGCGCACAGUUGCA [Same State 2 - Mod of Erisin v.4] (puzzle: Same State 2) ... FALSE
AGUCCAGCGAGAGCUGGACAAAAGCAUGUACAUGAGGAUCACCCAUGUCAUGUACAAGCUUUUUGCUCGUCUUAAAA [Mat - hsa-mir-208a - Mod of JL - D5] (puzzle: Sensor for hsa-mir-208a) ... TRUE
GACUAUCUAUCUCAGGAUAUCAUGUCAAAGACAUGAGGAUCACCCAUGUACCAGGAAACUGGUUAUGAGAAGGGAGAUAGAUAGA [Mat - Same State 2 - Mod - D44] (puzzle: Same State 2) ... TRUE
CGGCUUGUACAUGAGGAUCACCCAUGUAUGUACAAGUUUUUGCUCGUCUUAUAAAUACGAUCUACCGAAAGGUAGAU [BIOPHYS241_ElaineNg_1] (puzzle: Sensor for hsa-mir-208a version 2) ... TRUE

**Q:** Check the entry GCGGCGGCACGGCAGGAUAUGAUAUAACCUACAUGAGGAUCACCCAUGUCGGCGGGUUGCAAAAUUCAGAAGGGCCCUGUAGGCC [Inberere] (puzzle: Same State 2) : does apparent KD of MS2 coat protein equal or exceed 200 nM?
**A:** FALSE

**Q:** Check the entry AAAAGAAGAAUGUAGGAUAUACAAAAGAACACAUGAGGAUCACCCAUGUGAGCCUAAUGUAAGAAGUAGAAGGACAAAGAGAAAA [Default title] (puzzle: Same State 2) : does apparent KD of MS2 coat protein equal or exceed 200 nM?
**A:** FALSE

**Q:** Check the entry UACAAUCUAUCUCAGGAUAUCAUGUCAAAGACAUGAGGAUCACCCAUGUACCAGGAAACUGGUUAUGAGAAGGGAGAUAGAUUGA [Mat - Same State 2 - Mod - D25] (puzzle: Same State 2) : does apparent KD of MS2 coat protein equal or exceed 200 nM?
**A:** TRUE

**Q:** Check the entry UACAAUCUAUCUGAGGAUAUCAUGAAUUAAACAUGAGGAUCACCCAUGUGCAGGAAAACUGCAUAUGAGAAGGCAGAUAGAUUGU [salish99_ss2_r3_060] (puzzle: Same State 2) : does apparent KD of MS2 coat protein equal or exceed 200 nM?
**A:** TRUE

**Q:** Check the entry AGUCCAGCCUGAGCUGGACAAAAGCAUGUACAUGAGGAUCACCCAUGUUCAUGUAUAAGCUUUUUGCUCGUCUUAAA [Zipper 52 - 11] (puzzle: Sensor for hsa-mir-208a) : does apparent KD of MS2 coat protein equal or exceed 200 nM?
**A:** FALSE

**Q:** Check the entry AAAAUACAUGAGGAUCACCCAUGUCUAAAGAACGGAGGAUAUAGGCGUGCAAAACACGCACUAGAAGGCUGGGUGC [Eserus] (puzzle: Same State 1) : does apparent KD of MS2 coat protein equal or exceed 200 nM?
**A:** TRUE

**Q:** Check the entry AAGUAACAUGAGGAUCACCCAUGUGAGGUGAGCGUAGGAUAUCGAGAAGGAAGGGUGGAGCGAGAAGGACGAGGGA [JR_SS1_Sub0101] (puzzle: Same State 1) : does apparent KD of MS2 coat protein equal or exceed 200 nM?
**A:** TRUE

====

Test system: MS2 coat protein
measurement.notes: apparent KD of MS2 coat protein, switch ON state; designed switch direction (-1 OFF switch, 1 ON switch): -1; higher = weaker reporter binding
conditions.used: FMN input: 0 or 200 uM; Eterna round: R93 (includes R88 designs)
parameter.measured: apparent KD of MS2 coat protein (µM)
Only the number, expressed in µM, is required.

Use the examples below as a reference point.
AAACCACAUGAGGAUCACCCAUGUCAGGAUAUGCUAUGGAAAAAUAAAAUAAAACAUAGCAGAAGGGACAAAAA [Mat - Exclusion 1 - Eli mod - D34] ... 0.0311
CUCUUGUGAGGAUAUGAAAGAAAAGAAGAGAAAGAAAAGAAUCAGAAGGCACAUGAGGAUCACCCAUGUAAGAA [EteRNA is fun!] ... 0.0274

# next sequence below
**Q:** Give the reported apparent KD of MS2 coat protein for AAAAAGAUAGGAUAUACGUACAUGUCAAAAGACGUGAAGGGACAUGAGGAUCACCCAUGUAGAAGGAUUAAAAA [JL Wide Open 40] (system: MS2 coat protein).
**A:** 0.0316
